B1: CPEB3 Ribozyme (parent)
chain: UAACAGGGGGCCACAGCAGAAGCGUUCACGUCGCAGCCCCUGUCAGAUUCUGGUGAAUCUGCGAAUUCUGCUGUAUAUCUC

Variants of: B1
Experiment: self-cleavage, relative activity (ratio to wild type); higher = more cleavage; in vitro, sequencing
We use 0.3 as the dividing line for self-cleavage: on or above the line is T, below is F.

{"variant-designation": "A5G U60A", "answer-label": "T"}
{"variant-designation": "U43A A77U", "answer-label": "T"}
{"variant-designation": "A3G G16A", "answer-label": "T"}
{"variant-designation": "G9U U78C", "answer-label": "F"}
{"variant-designation": "G8U G24A", "answer-label": "F"}
{"variant-designation": "G24A U48C", "answer-label": "F"}
{"variant-designation": "A21G U54C", "answer-label": "T"}
{"variant-designation": "A5G U60C", "answer-label": "T"}
{"variant-designation": "A65C U72A", "answer-label": "F"}
{"variant-designation": "A13U C38G", "answer-label": "T"}
{"variant-designation": "C40U A64G", "answer-label": "T"}
{"variant-designation": "A13C G36C", "answer-label": "T"}
{"variant-designation": "A13G C44A", "answer-label": "F"}
{"variant-designation": "U26C C62U", "answer-label": "F"}
{"variant-designation": "U26G C62A", "answer-label": "F"}
{"variant-designation": "A45G C81A", "answer-label": "T"}
{"variant-designation": "A3G A28C", "answer-label": "T"}
{"variant-designation": "A3G G7A", "answer-label": "T"}
{"variant-designation": "C11U G73A", "answer-label": "T"}
{"variant-designation": "A65U G73U", "answer-label": "T"}
{"variant-designation": "G24C A45U", "answer-label": "F"}
{"variant-designation": "A15G U25G", "answer-label": "T"}
{"variant-designation": "A3U A20G", "answer-label": "T"}
{"variant-designation": "A47U A75G", "answer-label": "T"}
{"variant-designation": "U26C A64C", "answer-label": "T"}
{"variant-designation": "A15G G36A", "answer-label": "T"}
{"variant-designation": "C17U C34A", "answer-label": "F"}
{"variant-designation": "G36U U69A", "answer-label": "F"}
{"variant-designation": "A15C A20G", "answer-label": "T"}
{"variant-designation": "G53A U80C", "answer-label": "T"}
{"variant-designation": "G7A A57G", "answer-label": "F"}
{"variant-designation": "U1A C38A", "answer-label": "T"}
{"variant-designation": "A21G U66G", "answer-label": "T"}
{"variant-designation": "G8U U49A", "answer-label": "F"}
{"variant-designation": "G53A U72A", "answer-label": "T"}
{"variant-designation": "A21G U25A", "answer-label": "F"}
{"variant-designation": "U26C C37A", "answer-label": "F"}
{"variant-designation": "A21U A75G", "answer-label": "F"}
{"variant-designation": "C39U U51A", "answer-label": "T"}
{"variant-designation": "U31C U72C", "answer-label": "T"}
